Please go through the items and note down their MIC A. baumannii ATCC19606 […] 7.4.
# Tested on: A. baumannii ATCC19606
# Conditions: Table S2; […] MH, pH 7.4
Where a SMILES comes first, the peptide text is derived from it. [ ]: non-standard residue; d: D form. Nleu = CC(C)CNCC(=O)O; Nlys = NCCCCNCC(=O)O
Numbers only, in µg/mL.

>  <Molecule>
CC(C)CN(CC(N)=O)C(=O)CN(CC(C)C)C(=O)CN(CC(C)C)C(=O)CN(CCCCN)C(=O)CN(CC(C)C)C(=O)CN(CC(C)C)C(=O)CN(CCCCN)C(=O)CN(CC(C)C)C(=O)CN(CC(C)C)C(=O)CN(CCCCN)C(=O)CNCCCCN [EB11, kkllkllklll] (H-[Nlys][Nlys][Nleu][Nleu][Nlys][Nleu][Nleu][Nlys][Nleu][Nleu][Nleu]-NH2)

>  <Property label>
MIC A. baumannii ATCC19606 […] 7.4

>  <Test result>
16

$$$$

Quick batch: MIC A. baumannii ATCC19606 […] 7.4 for everything below.
1. CC(C)C[C@H](NC(=O)CN(CC(C)C)C(=O)[C@H](CCCCN)NC(=O)CNCCCCN)C(=O)N(CCCCN)CC(=O)N[C@@H](CC(C)C)C(=O)N(CC(=O)N[C@@H](CCCCN)C(=O)N(CC(=O)N[C@@H](CC(C)C)C(=O)N(CC(N)=O)CC(C)C)CC(C)C)CC(C)C [EB10, kKlLkLlKlLl] (H-[Nlys]K[Nleu]L[Nlys]L[Nleu]K[Nleu]L[Nleu]-NH2)
2. CC(C)C[C@H](NC(=O)[C@H](CCCCN)NC(=O)[C@@H](N)CCCCN)C(=O)N[C@@H](CC(C)C)C(=O)N[C@@H](CCCCN)C(=O)N(CC(=O)N(CC(=O)N(CCCCN)CC(=O)N(CC(=O)N(CC(=O)N(CC(N)=O)CC(C)C)CC(C)C)CC(C)C)CC(C)C)CC(C)C [EB4, KKLLKllklll] (H-KKLLK[Nleu][Nleu][Nlys][Nleu][Nleu][Nleu]-NH2)

Ans.
1. 16
2. 32

* * *

# Tested on: PA14 4.13 (phoQ)
# Conditions: Table S3; […] MH at pH 8.5
Where a SMILES comes first, the peptide text is derived from it. [ ]: non-standard residue; d: D form. Nleu = CC(C)CNCC(=O)O; Nlys = NCCCCNCC(=O)O
Please go through the items and note down their MIC P. aeruginosa PA14 4.13.
Answers are plain numbers, in µg/mL.

>  <Compound>
CC(C)C[C@H](NC(=O)[C@H](CC(C)C)NC(=O)[C@H](CC(C)C)NC(=O)[C@H](CCCCN)NC(=O)[C@H](CC(C)C)NC(=O)[C@H](CC(C)C)NC(=O)CN(CCCCN)C(=O)[C@H](CC(C)C)NC(=O)[C@H](CC(C)C)NC(=O)CN(CCCCN)C(=O)CNCCCCN)C(N)=O [EB6, kkLLkLLKLLL] (H-[Nlys][Nlys]LL[Nlys]LLKLLL-NH2)

>  <MIC P. aeruginosa PA14 4.13 (µg/mL)>
2

$$$$

Quick batch: MIC P. aeruginosa PA14 4.13 for everything below.
1. CC(C)C[C@H](NC(=O)[C@H](CC(C)C)NC(=O)[C@H](CC(C)C)NC(=O)[C@H](CCCCN)NC(=O)[C@H](CC(C)C)NC(=O)[C@H](CC(C)C)NC(=O)CN(CCCCN)C(=O)CN(CC(C)C)C(=O)CN(CC(C)C)C(=O)CN(CCCCN)C(=O)CNCCCCN)C(N)=O [EB5, kkllkLLKLLL] (H-[Nlys][Nlys][Nleu][Nleu][Nlys]LLKLLL-NH2)
2. CC(C)C[C@H](NC(=O)[C@H](CCCCN)NC(=O)CNCCCCN)C(=O)N[C@@H](CC(C)C)C(=O)N[C@@H](CCCCN)C(=O)N[C@@H](CC(C)C)C(=O)N[C@@H](CC(C)C)C(=O)N[C@@H](CCCCN)C(=O)N[C@@H](CC(C)C)C(=O)N[C@@H](CC(C)C)C(=O)N(CC(N)=O)CC(C)C [EB1] (H-[Nlys]KLLKLLKLL[Nleu]-NH2; N-terminus assumed)

Ans.
2
2

meta.source: paper PMC10714400
